# target of assay: RSV prefusion F (preF), DS-Cav1 (Respiratory Syncytial Virus, UniProt P03420 26-513)
# protocol summary: BLI, IgG on anti-human IgG sensor, 100 nM antigen, 1:1 fit
Listed binders paired with reported Kd

# binder, Kd
data = [
    ("ADI-41548 (antibody, V domains shown, also called Ab 820; Antibody Number 820) VH: QVQLQQWGPGLVKPSETLSLTCTVSGASITSHYWSWLRQPAGKGLEWIGRFYPSGTTEKTPSLKSRVTLSVDTSKNHFSLKLTSVTAADTAVYYCARDSYDDIAGSYEYYFADWGQGTLVTVSS VL: EIVLTQSPATLSVSPGERATLSCRASQSVSSNLAWYQQKPGQAPRLLIYDISTRATGVPARFSGSGSGTEFTLTITSLQSEDFTVYYCQQYNNWPPTFGQGTKLEIK", "2.56 nM"),
    ("ADI-41484 (antibody, V domains shown) VH: EVQLVESGPGLVKPSEALSLTCTVSGASISSYYWTWIRQSPRKGLEWIGYIYHTGRTNYNPSLKRRVTMSVDWSKNQFSLTLSSVTAADTAVYYCARLKVVPAALESAILEHHFGLDVWGQGTTVTVSS VL: DIVMTQTPSTLSASIGDRVTLTCRASQSINRWLAWYQQKPGKAPKLLIYKASTLESGVPSRFSGSGSGTEFTLTISGLQPDDFATYYCQQYNNFPYTFGPGTKVDIK", "3.44 nM"),
    ("ADI-41471 (antibody, V domains shown) VH: QVQLVQSGADVKKPGSSVKISCKASGGSFITNSLSWVRRAPGQGLEWMGGIIPVSGTTTYAQKFLGRVTFTADESTSTAYMELNSLRSEDTAVYYCARFLGTPYPNVHYGMDVWGQGTTVTVSS VL: DIRVTQSPSSLSASVGARVTITCRASQSISTYLNWYQEKPGKAPKLLIYAASSLQRGVPSRFSGSGSETTFTLTISSLQPEDFATYYCQQSYTAAYNFGQGTKVEIK", "3.75 nM"),
    ("ADI-41517 (antibody, V domains shown) VH: QVQLVQSGGGLVQPGGSLRLACAASGFTLSGYAMNWVRQAPGKGLEWVSSISGSGGSTYYADSVKGRFTTSRDNSKNTVFLHMNSLRAEDTAIYYCATVPWETGPFDHWGQGTLVTVSS VL: QSVLTQPPSVSGAPGQRVTISCTGSSSNIGAGYAVHWYQQLPGTAPKLLIHGTTNRPSGVPDRFSGSKSGTSASLAITGLQAEDEADYYCQSYDSRLSGYVFGTGTKLTVL", "0.501 nM"),
    ("ADI-41521 (antibody, V domains shown) VH: EVQLVESGGGLVQPGRSLRLSCAASGFTFDDFAMDWVRQVPGKGLEWVSGISWNGVSKDYAGSVKGRFTISRDNAKNSLYLQMNSLRAEDTALYFCAKARRDVYNWGDAFDIWGQGTMVTVSS VL: DIRLTQSPGTLSLSPGERATLSCRASQPLNSNYLAWYRQKPGQAPRLLIFDASSRATGVPDRISGSGSGTDFTLTVSRLEPEDIAVYYCQQYASSPWTFGLGTKVEIK", "1.68 nM"),
]
